Tested on: HeLa Kyoto;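 note: HeLa Kyoto cells synchronized by double thymidine or nocodazole block, proteins quantified by TMT10plex mass spectrometry, three independent biological replicates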
Test: melting temperature (median over replicates), in situ; higher = more thermally stable
Conditions: cell cycle stage: G1/S
Give melting temperature for every item shown.
One number for each entry, in °C.

Here's what some known entries look like.
- MPQYQTWEEFSRAAEKLYLADPMKARVVLKYRHSDGNLCVKVTDDLVCLVYKTDQAQDVKKIEKFHSQLMRLMVAKEARNVTMETE [SRP9]: 53.5
- MGAFLDKPKMEKHNAQGQGNGLRYGLSSMQGWRVEMEDAHTAVIGLPSGLESWSFFAVYDGHAGSQVAKYCCEHLLDHITNNQDFKGSAGAPSVENVKNGIRTGFLEIDEHMRVMSEKKHGADRSGSTAVGVLISPQHTYFINCGDSRGLLCRNRKVHFFTQDHKPSNPLEKERIQNAGGSVMIQRVNGSLAVSRALGDFDYKCVHGKGPTEQLVSPEPEVHDIERSEEDDQFIILACDGIWDVMGNEELCDFVRSRLEVTDDLEKVCNEVVDTCLYKGSRDNMSVILICFPNAPKVSPEAVKKEAELDKYLECRVEEIIKKQGEGVPDLVHVMRTLASENIPSLPPGGELASKRNVIEAVYNRLNPYKNDDTDSTSTDDMW [PPM1A]: 51.9
- MAAQRPLRVLCLAGFRQSERGFREKTGALRKALRGRAELVCLSGPHPVPDPPGPEGARSDFGSCPPEEQPRGWWFSEQEADVFSALEEPAVCRGLEESLGMVAQALNRLGPFDGLLGFSQGAALAALVCALGQAGDPRFPLPRFILLVSGFCPRGIGFKESILQRPLSLPSLHVFGDTDKVIPSQESVQLASQFPGAITLTHSGGHFIPAAAPQRQAYLKFLDQFAE [OVCA2]: 49.8
- MSQGDSNPAAIPHAAEDIQGDDRWMSQHNRFVLDCKDKEPDVLFVGDSMVQLMQQYEIWRELFSPLHALNFGIGGDTTRHVLWRLKNGELENIKPKVIVVWVGTNNHENTAEEVAGGIEAIVQLINTRQPQAKIIVLGLLPRGEKPNPLRQKNAKVNQLLKVSLPKLANVQLLDTDGGFVHSDGAISCHDMFDFLHLTGGGYAKICKPLHELIMQLLEETPEEKQTTIA [PAFAH1B2]: 49.5
- MALLLCFVLLCGVVDFARSLSITTPEEMIEKAKGETAYLPCKFTLSPEDQGPLDIEWLISPADNQKVDQVIILYSGDKIYDDYYPDLKGRVHFTSNDLKSGDASINVTNLQLSDIGTYQCKVKKAPGVANKKIHLVVLVKPSGARCYVDGSEEIGSDFKIKCEPKEGSLPLQYEWQKLSDSQKMPTSWLAEMTSSVISVKNASSEYSGTYSCTVRNRVGSDQCLLRLNVVPPSNKAGLIAGAIIGTLLALALIGLIIFCCRKKRREEKYEKEVHHDIREDVPPPKSRTSTARSYIGSNHSSLGSMSPSNMEGYSKTQYNQVPSEDFERTPQSPTLPPAKVAAPNLSRMGAIPVMIPAQSKDGSIV [CXADR]: 59.4

// below: melting temperature requested for another sequence
Assay HeLa Kyoto, sample MAAPVDLELKKAFTELQAKVIDTQQKVKLADIQIEQLNRTKKHAHLTDTEIMTLVDETNMYEGVGRMFILQSKEAIHSQLLEKQKIAEEKIKELEQKKSYLERSVKEAEDNIREMLMARRAQ [PFDN1] , melting temperature read: 52.9
